# Lookup of reported inhibition in vivo at 10 mg/kg keyed by entry
- System: ddY-type mice
- procedure.summary: Analgesic efficacy test (1): acetic acid writhing test
- Assay type: in vivo
- run.parameters: Mus musculus; writhing number; oral single dose 10 mg/kg; mean ± standard error; 8 mice per group; read-out: Suppressive Rate

### Prompt # query: inhibition in vivo at 10 mg/kg of entry Cl.O=C(/C=C/c1ccccc1F)NCCCN1CCOCC1 [Compound 11, hydrochloride]
### Response 23.2%

Shifting focus to the compound that follows.
### Prompt Reported inhibition in vivo at 10 mg/kg for O=C(/C=C/c1ccccc1F)NCc1cccnc1 : what is it?
### Response 39.9%

----------
- Test system: ddY-type mice
- procedure.summary: Analgesic efficacy test (1): acetic acid writhing test
- Assay type: in vivo
- run.parameters: Mus musculus; writhing number; oral single dose 10 mg/kg; mean ± standard error; 8 mice per group; read-out: Suppressive Rate
Where a name gives a salt, the structure may show the parent alone.
recorded.metric: inhibition in vivo at 10 mg/kg (%)
Enter your answer as a number in %; do not include the unit.

### Prompt Entry under review: CN1CCN(CCCNC(=O)/C=C/c2ccccc2F)CC1 [Compound 15, dihydrochloride] . Reported inhibition in vivo at 10 mg/kg?
### Response 24.3

### Prompt Which inhibition in vivo at 10 mg/kg value belongs to O=C(/C=C/c1ccccc1F)NCCCN1CCN(C2CCCCC2)CC1 ?
### Response 41.5

Continuing:
### Prompt What value of inhibition in vivo at 10 mg/kg has been recorded for this entry: O=C(/C=C/c1ccccc1F)NCCN1CCOCC1
### Response 34.8

### Prompt I have this molecule here, Cn1cccc1CCNC(=O)/C=C/c1ccccc1F , and I need its recorded inhibition in vivo at 10 mg/kg.
### Response 8.5

### Prompt Give its inhibition in vivo at 10 mg/kg value. Item: CN(C)CCCNC(=O)/C=C/c1ccccc1F.Cl [Compound 12, hydrochloride]
### Response -4.3

----------
- System: Chung model rat
- procedure.summary: Analgesic efficacy test (2): Chung model rat, neuropathic pain model (allodynia, von Frey filament)
- Type: in vivo, rats
- run.parameters: oral 10 mg/kg; measurement point 90 minute (action peak); mean ± standard error
Marks after values point to notes of the source that are not given here.
recorded.metric: 50% Reaction Threshold, Group Administered with Test Substance, After Administration

Previously resolved entries follow.
### Prompt Quick check: 50% Reaction Threshold, Group Administered with Test Substance, After Administration of O=C(/C=C/c1ccccc1F)NCCN1CCN(C2CCCCC2)CC1 ?
### Response 14.06 ± 0.61* g

### Prompt Fill in the blank: the reported 50% Reaction Threshold, Group Administered with Test Substance, After Administration of Cl.O=C(/C=C/c1ccccc1F)NCCCN1CCS(=O)(=O)CC1 is ____.
### Response 9.22 ± 1.28* g

Next:
### Prompt What 50% Reaction Threshold, Group Administered with Test Substance, After Administration value was documented for this molecule, O=C(/C=C/c1ccc(F)cc1F)NCCn1ccnc1 ?
### Response 9.81 ± 1.27* g

### Prompt GET /values?readout=50% Reaction Threshold, Group Administered with Test Substance, After Administration&item= O=C(/C=C/c1ccccc1F)NCCc1ccncc1
### Response 10.06 ± 1.60* g

### Prompt Can you share its 50% Reaction Threshold, Group Administered with Test Substance, After Administration? I mean this molecule: O=C(/C=C/c1ccccc1F)NCCc1c[nH]cn1
### Response 11.44 ± 1.95* g

### Prompt Which 50% Reaction Threshold, Group Administered with Test Substance, After Administration is listed for Cl.O=C(/C=C/c1ccc(F)cc1)NCCCN1CCS(=O)(=O)CC1 ?
### Response 6.74 ± 0.62* g

### Prompt Would you mind telling me what 50% Reaction Threshold, Group Administered with Test Substance, After Administration value was observed for Cn1cccc1CCNC(=O)/C=C/c1ccccc1F ?
### Response 5.57 ± 1.18* g

----------
melting point reference
Where a name gives a salt, the structure may show the parent alone.

Example results:
### Prompt Look up melting point for this compound: O=C(/C=C/c1ccccc1F)NCCc1c[nH]cn1
### Response 152 to 153 °C

### Prompt Entry O=C(/C=C/c1ccc(F)cc1F)NCCCN1CCOCC1 has what melting point?
### Response 94 to 95 °C

### Prompt Item Cl.O=C(/C=C/c1ccccc1F)NCCCN1CCSCC1 has what recorded melting point?
### Response 178 to 179 °C

### Prompt # get_value(readout='melting point', item= CN(C)CCCNC(=O)/C=C/c1ccccc1F.Cl )
### Response 99 to 100 °C

### Prompt Fill blank: measured melting point of the compound Cl.NCCCCNC(=O)/C=C/c1ccccc1F is ____.
### Response 177 to 178 °C

### Prompt Given the entry O=C(/C=C/c1ccccc1F)NCCN1CCCC1 , report its measured melting point.
### Response 83 to 84 °C

### Prompt What value of measured melting point is listed for O=C(/C=C/c1ccccc1F)NCCN1CCCCCC1 ?
### Response 80 to 81 °C

### Prompt Param item = O=C(/C=C/c1ccccc1F)NCCN1CCN(C2CCCCC2)CC1 ; retrieve measured melting point.
### Response 113 to 114 °C

Next:
### Prompt Quick one: melting point for Nc1ccccc1CCNC(=O)/C=C/c1ccccc1F ?
### Response 128 to 129 °C

### Prompt melting point lookup needed for Cl.O=C(/C=C/c1ccccc1F)NCCCN1CCCCC1 , thanks.
### Response 166 to 167 °C

### Prompt I'd like to know its melting point. The compound in question is O=C(/C=C/c1ccccc1F)NCCCN1CCNCC1 (as salt: hydrochloride)
### Response 143 to 144 °C

### Prompt Entry O=C(/C=C/c1ccc(F)cc1)NCCCN1CC[S+]([O-])CC1 : reported melting point = ?
### Response 130 to 131 °C

### Prompt Would you kindly share the measured melting point for Cl.O=C(/C=C/c1ccccc1F)NCCCN1CCS(=O)(=O)CC1 ?
### Response 252 to 253 °C

----------
Reported inhibition in vivo at 10 mg/kg values for a set of molecules
- Test system: ddY-type mice
- procedure.summary: Analgesic efficacy test (1): acetic acid writhing test
- Assay type: in vivo
- run.parameters: Mus musculus; writhing number; oral single dose 10 mg/kg; mean ± standard error; 8 mice per group; read-out: Suppressive Rate
Counter-ions that a name gives are not always drawn.
A number alone suffices; assume %.

Reference set (3 entries):
### Prompt Reported inhibition in vivo at 10 mg/kg, molecule O=C(/C=C/c1ccccc1F)NCCN1CCN(C2CCCCC2)CC1 : ____
### Response 29.6

### Prompt # lookup: inhibition in vivo at 10 mg/kg of O=C(/C=C/c1ccccc1F)NCCN1CCCCC1
### Response 47

### Prompt Consider the molecule O=C(/C=C/c1ccccc1F)NCCc1c[nH]c2ccccc12 and give its measured inhibition in vivo at 10 mg/kg.
### Response 46.9

***
### Prompt Fill in: inhibition in vivo at 10 mg/kg of O=C(/C=C/c1ccccc1F)NCCc1c[nH]cn1 is ___
### Response 54.3

### Prompt Which inhibition in vivo at 10 mg/kg reading was recorded for the molecule Cl.O=C(/C=C/c1ccccc1F)NCCn1ccnc1 [Compound 21, hydrochloride] ?
### Response 44.5

### Prompt Would you kindly share the measured inhibition in vivo at 10 mg/kg for O=C(/C=C/c1ccccc1F)NCCc1ccncc1 ?
### Response 44.4

### Prompt Suppose we examine the molecule Cl.NCCCCNC(=O)/C=C/c1ccccc1F [Compound 14, hydrochloride] ; what inhibition in vivo at 10 mg/kg value has been reported?
### Response 46.3

### Prompt Need inhibition in vivo at 10 mg/kg, item O=C(/C=C/c1ccccc1F)NCCN1CCNCC1 [Compound 16, dihydrochloride]
### Response 42.6

meta.source: patent US9540338B2
